Provenance of the data: patent US10508085B2

target: human TDO (TDO-expressing HEK293 cells) (Homo sapiens); construct: expressed in transfected cells; experiment: Cell based kynurenine assay, TDO-expressing HEK293 cell clones; details: cellular assay, HEK293, 24 hours; comparative examples; read-out: hTDO
Sequence (P48775 whole entry): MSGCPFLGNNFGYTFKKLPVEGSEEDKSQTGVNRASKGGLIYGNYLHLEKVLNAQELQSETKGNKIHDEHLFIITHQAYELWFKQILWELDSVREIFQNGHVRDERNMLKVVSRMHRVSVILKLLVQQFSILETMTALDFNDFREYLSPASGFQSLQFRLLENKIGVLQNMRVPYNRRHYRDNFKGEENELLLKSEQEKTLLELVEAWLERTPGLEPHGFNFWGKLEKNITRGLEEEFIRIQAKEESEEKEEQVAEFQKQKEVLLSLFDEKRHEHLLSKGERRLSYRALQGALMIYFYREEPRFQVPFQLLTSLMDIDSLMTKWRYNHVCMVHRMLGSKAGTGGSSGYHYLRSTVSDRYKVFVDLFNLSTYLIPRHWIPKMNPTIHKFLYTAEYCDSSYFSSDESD
pIC50: −log10 of the molar value.
measuredProperty: pIC50

Worked examples follow.
# compound, testSystem, recordedMeasurement
measured = [
    ("OC(c1cc(Cl)cc2cn[nH]c12)C1CCCCC1 (stereo not drawn) [drawing 810]", "human TDO (TDO-expressing HEK293 cells) (Homo sapiens)", 5.92),
    ("COC12CCC(C(O)c3cc(Cl)cc4[nH]ncc34)(CC1)CC2 (stereo not drawn) [drawing 813]", "human TDO (TDO-expressing HEK293 cells) (Homo sapiens)", 6.77),
    ("COC12CCC(C(O)c3cc(Cl)cc4cn[nH]c34)(CC1)CC2 (stereo not drawn) [drawing 812]", "human TDO (TDO-expressing HEK293 cells) (Homo sapiens)", 5.58),
    ("CC(C)(C1CCOCC1)C(O)c1cc(Cl)cc2[nH]ncc12 (stereo not drawn) [drawing 817]", "human TDO (TDO-expressing HEK293 cells) (Homo sapiens)", 8.00),
    ("OC1(c2cc(Cl)cc3[nH]ncc23)CC2(CCOCC2)C1 [drawing 821]", "human TDO (TDO-expressing HEK293 cells) (Homo sapiens)", 6.24),
    ("CC(C)(C1CCOCC1)C(O)c1cc(Cl)cc2cn[nH]c12 (stereo not drawn) [drawing 816]", "human TDO (TDO-expressing HEK293 cells) (Homo sapiens)", 5.58),
]

[a] OC(c1cc(Cl)cc2[nH]ncc12)C1CCCCC1 (stereo not drawn) [drawing 811]
[b] OC1(c2cc(Cl)cc3[nH]ncc23)CC2(CCC2)C1 [drawing 819]
[c] OC1(c2cc(Cl)cc3cn[nH]c23)CC2(CCC2)C1 [drawing 818]
[d] CC(C)(C1CCN(S(C)(=O)=O)CC1)C(O)c1cc(Cl)cc2cn[nH]c12 (stereo not drawn) [drawing 814]
[e] CC(C)(C1CCN(S(C)(=O)=O)CC1)C(O)c1cc(Cl)cc2[nH]ncc12 (stereo not drawn) [drawing 815]
Sequence the entries by pIC50, beginning with the highest number. Rank the items, then write their labels in that order.
e, b, a, d, c
